- systemUnderTest: UniProt P62937
- Sequence (P62937 whole entry): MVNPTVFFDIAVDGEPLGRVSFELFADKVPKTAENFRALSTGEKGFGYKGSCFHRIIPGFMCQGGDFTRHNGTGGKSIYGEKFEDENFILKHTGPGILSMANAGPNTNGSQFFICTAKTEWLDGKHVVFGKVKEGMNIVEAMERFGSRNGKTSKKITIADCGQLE
- protocolText: Fluorescence assay: interaction with Cyclophilin A (dissociation constant)
- assayConditions: 20° C., read-out: Kd determined by fluorescence assay
pKd: −log10 of the molar value.
experimentalReadout: pKd

// below: answered molecules
> print(dat)
                                   molecule  resultnumber
1  COC(=O)N[C@H](C(=O)OC1=CC(=O)CC(C)(C)C1)C(C)C          4.15
2  CC(C)[C@H](NC(=O)OCc1ccccc1)C(=O)OC1=CC(=O)C(C)(C)C(C)(C)C1          4.17
3          CC(C)COC(=O)OC1=CC(=O)CC(C)(C)C1          3.89

[1] CC1(C)CC(=O)CC(=O)C1C/C=C/c1ccccc1 (stereo not drawn)
[2] COC(=O)CC1C(=O)CC(=O)CC1(C)C (stereo not drawn)
Pick one: 1 or 2 . Which has the bigger pKd number? I would appreciate it if you answered with the label of your choice.
2

Hey, just so you know, these numbers are from patent US7223795B2.
